All values here come from patent US20170253607A1.

- MEASURED TARGET: HIV-1 PR (Human immunodeficiency virus type 1 group M subtype B, UniProt P04585)
- METHOD: HIV-protease inhibitory activity assay (FRET peptide substrate)
- CONDITION LABEL: Test Example 1
MEASUREMENT KIND: IC50
I'd appreciate it if you wrote the number followed by its unit.

The examples below pair each entry with its known result.
[
  {
    "COMPOUND": "COc1ccc(S(=O)(=O)N(CC(C)C)CC(O)C(Cc2ccc(N(CCc3ccccc3)Cc3ccccc3-c3sc4c(c3C(=O)O)CC(C)(C)CC4)cc2)NC(=O)OC2COC3(C)OCCC23)cc1 (stereo not shown)",
    "MEASUREMENT KIND": "IC50",
    "VALUE REPORTED": "14.7 nM"
  },
  {
    "COMPOUND": "COc1ccc(S(=O)(=O)N(CC(C)C)CC(O)C(Cc2ccccc2)NC(=O)OC2COC3(COC(=O)NCc4sc5c(c4C(=O)O)CC(C)(C)CC5)OCCC23)cc1 (stereo not shown)",
    "MEASUREMENT KIND": "IC50",
    "VALUE REPORTED": "1.64 nM"
  },
  {
    "COMPOUND": "COc1ccc(S(=O)(=O)N(CC(C)C)CC(O)C(Cc2ccc(NCc3cc(OC(F)(F)F)ccc3-c3sc4c(c3C(=O)O)CC(C)(C)CC4)cc2)NC(=O)OC2COC3(C)OCCC23)cc1 (stereo not shown)",
    "MEASUREMENT KIND": "IC50",
    "VALUE REPORTED": "5.48 nM"
  },
  {
    "COMPOUND": "CC(C)CN(CC(O)C(Cc1ccc(OCc2ccccc2-c2ccccc2C(=O)O)cc1)NC(=O)OC1COC2(C)OCCC12)S(=O)(=O)c1ccc2ncsc2c1 (stereo not shown)",
    "MEASUREMENT KIND": "IC50",
    "VALUE REPORTED": "1.3 nM"
  },
  {
    "COMPOUND": "COc1ccc(S(=O)(=O)N(CC(C)C)CC(O)C(Cc2ccc(OCc3ccnc(C(=O)O)c3)cc2)NC(=O)OC2COC3(C)OCCC23)cc1 (stereo not shown)",
    "MEASUREMENT KIND": "IC50",
    "VALUE REPORTED": "1.89 nM"
  },
  {
    "COMPOUND": "COc1ccc(S(=O)(=O)N(CC(C)C)CC(O)C(Cc2ccc(N3CCC(C(=O)Nc4sc5c(c4C(=O)O)CC(C)(C)CC5)C3)cc2)NC(=O)OC2COC3OCCC23)cc1 (stereo not shown)",
    "MEASUREMENT KIND": "IC50",
    "VALUE REPORTED": "2.21 nM"
  },
  {
    "COMPOUND": "COc1ccc(S(=O)(=O)N(CC(C)C)CC(O)C(Cc2ccc(N3CCC(Oc4ccccc4C(=O)Nc4sc5c(c4C(=O)O)CC(C)(C)CC5)C3)cc2)NC(=O)OC2COC3(C)OCCC23)cc1 (stereo not shown) [Compound I-588]",
    "MEASUREMENT KIND": "IC50",
    "VALUE REPORTED": "3.29 nM"
  },
  {
    "COMPOUND": "COc1ccc(S(=O)(=O)N(CC(C)C)CC(O)C(Cc2ccc(NCc3ccccc3-c3sc4c(c3C(=O)O)CC(C)(C)CC4)cc2)NC(=O)OC2COC3(C)OCCC23O)cc1 (stereo not shown)",
    "MEASUREMENT KIND": "IC50",
    "VALUE REPORTED": "1.74 nM"
  }
]

Hi there! I need IC50 for each item below, if you can.
1. COc1ccc(S(=O)(=O)N(CC(C)C)C[C@@H](O)[C@H](Cc2ccc(CCc3sc4c(c3C(=O)O)CC(C)(C)CC4)cc2)NC(=O)O[C@H]2CO[C@@]3(C)OCC[C@@H]23)cc1
2. COc1ccc(S(=O)(=O)N(CC(C)C)CC(O)C(Cc2ccc(NCc3ccc(CCC(=O)Nc4sc5c(c4C(=O)O)CC(C)(C)CC5)cc3)cc2)NC(=O)OC2COC3(C)OCCC23)cc1 (stereo not shown)

1. 1.82 nM
2. 3.45 nM

###

- MEASURED TARGET: HIV-1 PR (Human immunodeficiency virus type 1 group M subtype B, UniProt P04585)
- METHOD: HIV-protease inhibitory activity assay (FRET peptide substrate)
- CONDITION LABEL: Test Example 1
Give measured IC50 for each item. Keep answers brief.
I'd appreciate it if you wrote the number followed by its unit.

[
  {
    "MOLECULE": "Cc1cc(Oc2ccc(CC(NC(=O)OC3COC4OCCC34)C(O)CN(CC(C)C)S(=O)(=O)c3ccc4c(c3)OCO4)cc2)ccc1-c1sc2c(c1C(=O)O)CC(C)(C)CC2 (centres unmarked)",
    "MEASURED TARGET": "HIV-1 PR (Human immunodeficiency virus type 1 group M subtype B, UniProt P04585)",
    "MEASUREMENT KIND": "IC50",
    "VALUE REPORTED": "2.81 nM"
  },
  {
    "MOLECULE": "COc1ccc(S(=O)(=O)N(CC(C)C)CC(O)C(Cc2ccc(N(C)Cc3cc(N(C)C)ccc3-c3sc4c(c3C(=O)O)CC(C)(C)CC4)cc2)NC(=O)OC2COC3(C)OCCC23)cc1 (centres unmarked)",
    "MEASURED TARGET": "HIV-1 PR (Human immunodeficiency virus type 1 group M subtype B, UniProt P04585)",
    "MEASUREMENT KIND": "IC50",
    "VALUE REPORTED": "2.86 nM"
  },
  {
    "MOLECULE": "COc1ccc(S(=O)(=O)N(CC(C)C)CC(O)C(Cc2ccc(OCc3ccccc3NC(=O)c3sc4c(c3C(=O)O)CC(C)(C)CC4)cc2)NC(=O)OC2COC3(C)OCCC23)cc1 (centres unmarked)",
    "MEASURED TARGET": "HIV-1 PR (Human immunodeficiency virus type 1 group M subtype B, UniProt P04585)",
    "MEASUREMENT KIND": "IC50",
    "VALUE REPORTED": "1.89 nM"
  },
  {
    "MOLECULE": "COc1ccc(S(=O)(=O)N(CC(C)C)CC(O)C(Cc2ccc(OCc3ccccc3-c3sc(N4CCCC(C)(C)C4)nc3C(=O)O)cc2)NC(=O)OC2COC3OCCC23)cc1 (centres unmarked)",
    "MEASURED TARGET": "HIV-1 PR (Human immunodeficiency virus type 1 group M subtype B, UniProt P04585)",
    "MEASUREMENT KIND": "IC50",
    "VALUE REPORTED": "1.2 nM"
  },
  {
    "MOLECULE": "COc1ccc(S(=O)(=O)N(CC(C)C)CC(O)C(Cc2ccc(NCC3=C(c4sc5c(c4C(=O)O)CC(C)(C)CC5)C4CC(C3)C4(C)C)cc2)NC(=O)OC2COC3(C)OCCC23)cc1 (centres unmarked)",
    "MEASURED TARGET": "HIV-1 PR (Human immunodeficiency virus type 1 group M subtype B, UniProt P04585)",
    "MEASUREMENT KIND": "IC50",
    "VALUE REPORTED": "4.58 nM"
  }
]

Hi there! I need IC50 for each item below, if you can.
1. COc1ccc(S(=O)(=O)N(CC(C)C)CC(O)C(Cc2ccc(CN(C)c3ccccc3-c3sc4c(c3C(=O)O)CC(C)(C)CC4)cc2)NC(=O)OC2COC3(C)OCCC23)cc1 (centres unmarked)
2. CC(C)CN(CC(O)C(Cc1ccc(NCc2ccccc2C(=O)Nc2sc3c(c2C(=O)O)CC(C)(C)CC3)cc1)NC(=O)OC1COC2OCCC12)S(=O)(=O)c1ccc2ncsc2c1 (centres unmarked)
3. COc1ccc(S(=O)(=O)N(CC(C)C)CC(O)C(Cc2ccc(Oc3ccc(C)c(-c4sc5c(c4C(=O)O)CC(C)(C)CC5)c3)cc2)NC(=O)OC2COC3(C)OCCC23)cc1 (centres unmarked)
4. COc1ccc(S(=O)(=O)N(CC2CCCC2)CC(O)C(Cc2ccc(OCc3ccccc3Cn3nc(C(=O)O)c4c3CCC(C)(C)C4)cc2)NC(=O)OC2COC3(C)OCCC23)cc1 (centres unmarked)
5. COc1ccc(S(=O)(=O)N(CC(C)C)CC(O)C(Cc2ccc(NCc3ccc(Oc4ccccc4)cc3-c3sc4c(c3C(=O)O)CC(C)(C)CC4)cc2)NC(=O)OC2COC3(C)OCCC23)cc1 (centres unmarked)
6. COc1ccc(S(=O)(=O)N(CC(C)C)CC(O)C(Cc2ccc(NCc3ccc(-c4sc5c(c4C(=O)O)CC(C)(C)CC5)c4ccccc34)cc2)NC(=O)OC2COC3(C)OCCC23)cc1 (centres unmarked)

1. 2.26 nM
2. 2.66 nM
3. 2.04 nM
4. 2.11 nM
5. 4.07 nM
6. 10.5 nM

Hi there! I need IC50 for each item below, if you can.
1. COc1ccc(S(=O)(=O)N(CC(C)C)CC(O)C(Cc2ccc(N(C)C3Cc4cccc(-c5sc6c(c5C(=O)O)CC(C)(C)CC6)c4C3)cc2)NC(=O)OC2COC3(C)OCCC23)cc1 (centres unmarked) [Compound I-405]
2. COc1ccc(S(=O)(=O)N(CC(C)C)CC(O)C(Cc2ccc(NC3CCCc4c(-c5sc6c(c5C(=O)O)CC(C)(C)CC6)cccc43)cc2)NC(=O)OC2COC3(C)OCCC23)cc1 (centres unmarked) [Compound I-752]

1. 2.42 nM
2. 13.3 nM

Hi there! I need IC50 for each item below, if you can.
1. COc1ccc(S(=O)(=O)N(CC(C)C)CC(O)C(Cc2ccc(NCc3c(-c4sc5c(c4C(=O)O)CC(C)(C)CC5)cccc3[N+](=O)[O-])cc2)NC(=O)OC2COC3(C)OCCC23)cc1 (centres unmarked)
2. COc1ccc(S(=O)(=O)N(CC(C)C)CC(O)C(Cc2ccc(OCc3ccccc3-c3nc(C4=CCC(C)(C)CC4)sc3C(=O)O)cc2)NC(=O)OC2COC3OCCC23)cc1 (centres unmarked)

1.86 nM
0.94 nM

Hi there! I need IC50 for each item below, if you can.
1. COc1ccc(S(=O)(=O)N(CC(C)C)CC(O)C(Cc2ccc(NCC3=C(c4sc5c(c4C(=O)O)CC(C)(C)CC5)CN(C(=O)O)C3)cc2)NC(=O)OC2COC3(C)OCCC23)cc1 (centres unmarked)
2. COc1ccc(S(=O)(=O)N(CC(C)C)CC(O)C(Cc2ccc(OC3CN(c4ccc(-c5sc6c(c5C(=O)O)CC(C)(C)CC6)cc4)C3)cc2)NC(=O)OC2COC3(C)OCCC23)cc1 (centres unmarked)
3. COc1ccc(S(=O)(=O)N(CC(C)C)CC(O)C(Cc2ccc(N(C)Cc3sc4c(c3C(=O)O)CC(C)(C)CC4)cc2)NC(=O)OC2COC3(C)OCCC23)cc1 (centres unmarked)
4. COc1ccc(S(=O)(=O)N(CC(C)C)CC(O)C(Cc2ccc(NCc3ccccc3NC(=O)Nc3sc4c(c3C(=O)O)CC(C)(C)CC4)cc2)NC(=O)OC2COC3OCCC23)cc1 (centres unmarked)
5. COc1ccc(S(=O)(=O)N(CC(C)C)CC(O)C(Cc2ccc(NCc3cc(-c4ccc(-c5ccccc5)cc4)ccc3-c3sc4c(c3C(=O)O)CC(C)(C)CC4)cc2)NC(=O)OC2COC3(C)OCCC23)cc1 (centres unmarked)

1.89 nM
6.22 nM
1.86 nM
2.03 nM
2.24 nM
